# assay.explanation: Cytotoxicity against human Bel7402 cells assessed as cell viability after 48 hrs by MTT assay
# Assay type: functional, cell-based
# protocol.conditions: Bel-7402, 48 h
pIC50: −log10 of the molar value.
pIC50 below 7 gives not met; pIC50 at or above it gives met.

Below are worked cases with known answers.
>>> print(df.to_string())
                            compound_string  assigned_label
0  CCCn1cc(/C=C(\C)C(=O)c2cc(OC)c(OC)c(OC)c2)c2ccc(OC)cc21         not met
1  COc1cc(C(=O)/C=C/c2c[nH]c3cccc(OC)c23)cc(OC)c1OC         not met
2  COc1ccc2c(/C=C(\C)C(=O)c3cc(OC)c(OC)c(OC)c3)cn(CCO)c2c1             met
3  CCn1cc(/C=C(\C)C(=O)c2cc(OC)c(OC)c(OC)c2)c2ccc(OC)cc21             met
4  COc1cc(C(=O)/C=C/c2cn(C)c3cccc(OC)c23)cc(OC)c1OC         not met

[Q] In plain terms: is recorded pIC50 at least 7 for COc1cc(C(=O)/C=C/c2cccc3c2ccn3C)cc(OC)c1OC ?
[A] met

[Q] In plain terms: is recorded pIC50 at least 7 for COc1cc(C(=O)/C=C/c2ccc3[nH]ccc3c2)cc(OC)c1OC ?
[A] met

[Q] In plain terms: is recorded pIC50 at least 7 for COc1ccc2c(c1)c(/C=C/C(=O)c1ccc(OC)c3c1OC(C)(C)C=C3)cn2C ?
[A] not met

[Q] In plain terms: is recorded pIC50 at least 7 for COc1ccc2[nH]cc(/C=C/C(=O)c3ccc(OC)c4c3OC(C)(C)C=C4)c2c1 ?
[A] not met

[Q] In plain terms: is recorded pIC50 at least 7 for COc1cc(C(=O)/C(C)=C/c2c[nH]c3cccc(OC)c23)cc(OC)c1OC ?
[A] not met

[Q] In plain terms: is recorded pIC50 at least 7 for COc1ccc2c(c1)c(/C=C/C(=O)c1cc(OC)c(OC)c(OC)c1)cn2C ?
[A] not met

[Q] In plain terms: is recorded pIC50 at least 7 for COc1ccc2c(/C=C(\C)C(=O)c3cc(OC)c(OC)c(OC)c3)cn(CCBr)c2c1 ?
[A] not met

[Q] In plain terms: is recorded pIC50 at least 7 for COc1ccc2c(/C=C/C(=O)c3cc(OC)c(OC)c(OC)c3)c[nH]c2c1 ?
[A] not met

---

# System: A2780
# assay.explanation: Cytotoxicity against human A2780 cells assessed as cell viability after 48 hrs by MTT assay
# Format: functional, cell-based
# protocol.conditions: A2780, 48 h
So basically: is IC50 under 0.04 µM? Then 1 (yes). Not under? Then 0 (no).

Below are worked cases with known answers.
compound.string	assigned.label
COc1ccc2c(/C=C(\C)C(=O)c3cc(OC)c(OC)c(OC)c3)cn(CCO)c2c1	1 (yes)
COc1ccc2c(c1)c(/C=C/C(=O)c1ccc(OC)c3c1OC(C)(C)C=C3)cn2C	0 (no)
COc1cc(C(=O)/C=C/c2cn(C)c3cccc(OC)c23)cc(OC)c1OC	0 (no)
CC(=O)O[C@H]1C(=O)[C@@]2(C)[C@H]([C@H](OC(=O)c3ccccc3)[C@]3(O)C[C@H](OC(=O)[C@H](O)[C@@H](NC(=O)c4ccccc4)c4ccccc4)C(C)=C1C3(C)C)[C@]1(OC(C)=O)CO[C@@H]1C[C@@H]2O	1 (yes)
COc1ccc2c(/C=C/C(=O)c3cc(OC)c(OC)c(OC)c3)c[nH]c2c1	0 (no)

[Q] Take the compound CCn1cc(/C=C(\C)C(=O)c2cc(OC)c(OC)c(OC)c2)c2ccc(OC)cc21 and say whether its IC50 is less than 0.04 µM.
[A] 1 (yes)

[Q] Take the compound COc1cc(C(=O)/C=C/c2c[nH]c3cccc(OC)c23)cc(OC)c1OC and say whether its IC50 is less than 0.04 µM.
[A] 0 (no)

[Q] Take the compound COc1ccc2c(c1)c(/C=C(\C)C(=O)c1cc(OC)c(OC)c(OC)c1)cn2C and say whether its IC50 is less than 0.04 µM.
[A] 0 (no)

[Q] Take the compound COc1ccc2c(/C=C/C(=O)c3ccc(OC)c4c3OC(C)(C)C=C4)cn(C)c2c1 and say whether its IC50 is less than 0.04 µM.
[A] 0 (no)

[Q] Take the compound COc1cc(C(=O)/C(C)=C/c2c[nH]c3cccc(OC)c23)cc(OC)c1OC and say whether its IC50 is less than 0.04 µM.
[A] 0 (no)

[Q] Take the compound COc1ccc2c(/C=C(\C)C(=O)c3cc(OC)c(OC)c(OC)c3)cn(CCBr)c2c1 and say whether its IC50 is less than 0.04 µM.
[A] 0 (no)

[Q] Take the compound COc1ccc2c(/C=C(\C)C(=O)c3cc(OC)c(OC)c(OC)c3)cn(C)c2c1 and say whether its IC50 is less than 0.04 µM.
[A] 1 (yes)

[Q] Take the compound COc1ccc2c(/C=C(\C)C(=O)c3cc(OC)c(OC)c(OC)c3)c[nH]c2c1 and say whether its IC50 is less than 0.04 µM.
[A] 1 (yes)

---

# assay.explanation: Solubility of the compound in sodium phosphate buffer at pH 7.4 at 25 +/- 1 degC
# Assay type: physicochemical
readout: solubility (mg/mL)
Give bare numbers, in mg/mL.

What the record says about COc1ccc2c(/C=C(\C)C(=O)c3cc(OC)c(OC)c(OC)c3)cn(P(=O)([O-])[O-])c2c1.[Na+].[Na+] : solubility is 125

---

# Tested on: A2780
# assay.explanation: Cytotoxicity against human A2780 cells assessed as cell viability after 48 hrs by MTT assay
# Type: functional, cell-based
# protocol.conditions: A2780, 48 h
readout: IC50 (nM)
Answers are plain numbers, in nM.

# example entries with known answers
molecule	test.system	data.value
COc1ccc2c(/C=C(\C)C(=O)c3cc(OC)c(OC)c(OC)c3)cn(CO)c2c1	A2780	21
CC[C@]1(O)C[C@H]2CN(CCc3c([nH]c4ccccc34)[C@@](C(=O)OC)(c3cc4c(cc3OC)N(C=O)[C@H]3[C@@](O)(C(=O)OC)[C@H](OC(C)=O)[C@]5(CC)C=CCN6CC[C@]43[C@@H]65)C2)C1 [VINCRISTINE]	A2780	26
COc1ccc2c(c1)c(/C=C/C(=O)c1cc(OC)c(OC)c(OC)c1)cn2C	A2780	283

What the record says about C=Cn1cc(/C=C(\C)C(=O)c2cc(OC)c(OC)c(OC)c2)c2ccc(OC)cc21 : IC50 is 49

---

# assay.explanation: Selectivity ratio of IC50 for human BJ cells to IC50 for human A549 cells
# Format: ADME, cell-based
# protocol.conditions: BJ cells versus A549 cells, read-out: Ratio IC50
readout: selectivity ratio
Numbers only.

What the record says about COc1ccc2c(/C=C(\C)C(=O)c3cc(OC)c(OC)c(OC)c3)c[nH]c2c1 : selectivity ratio is 2970

---

Exercise: state measured remaining at 1 h for each of the compounds provided.
# assay.explanation: Metabolic stability in Sprague-Dawley rat liver microsomes assessed as compound remaining at 60 mins in presence of NADPH regenerating system by HPLC method
# Type: ADME
# protocol.conditions: read-out: Stability
One number for each entry, in %.

In [3]: df
Out[3]:
                          compound_string           readout  data_value
0  COc1ccc(/C=C\c2cc(OC)c(OC)c(OC)c2)cc1O  remaining at 1 h        28.6

What the record says about COc1ccc2c(/C=C(\C)C(=O)c3cc(OC)c(OC)c(OC)c3)c[nH]c2c1 : remaining at 1 h is 80.5

---

# Tested on: A549
# assay.explanation: Cytotoxicity against human A549 cells assessed as cell viability after 48 hrs by MTT assay
# Format: functional, cell-based
# protocol.conditions: A549, 48 h
readout: IC50 (nM)
Give bare numbers, in nM.

# example entries with known answers
>>> df
                            compound_string  data_value
0  CCCn1cc(/C=C(\C)C(=O)c2cc(OC)c(OC)c(OC)c2)c2ccc(OC)cc21         514
1  COc1ccc2c(/C=C(\C)C(=O)c3cc(OC)c(OC)c(OC)c3)cn(CCO)c2c1          25
2  CCn1cc(/C=C(\C)C(=O)c2cc(OC)c(OC)c(OC)c2)c2ccc(OC)cc21          39
3  COc1ccc2c(/C=C/C(=O)c3ccc(OC)c4c3OC(C)(C)C=C4)c[nH]c2c1          55
4    COc1ccc(/C=C\c2cc(OC)c(OC)c(OC)c2)cc1O           5
5  COc1ccc2[nH]cc(/C=C/C(=O)c3ccc(OC)c4c3OC(C)(C)C=C4)c2c1         272

For each listed entry, give its IC50.
1. COc1ccc2c(/C=C(\C)C(=O)c3cc(OC)c(OC)c(OC)c3)cn(C)c2c1
2. COc1ccc2c(/C=C/C(=O)c3ccc(OC)c4c3OC(C)(C)C=C4)cn(C)c2c1
3. COc1ccc2c(/C=C(\C)C(=O)c3cc(OC)c(OC)c(OC)c3)cn(CO)c2c1
4. COc1ccc2c(c1)c(/C=C/C(=O)c1cc(OC)c(OC)c(OC)c1)cn2C
5. COc1ccc2c(c1)c(/C=C(\C)C(=O)c1cc(OC)c(OC)c(OC)c1)cn2C
6. COc1cc2c(c(OC)c1OC)C/C(=C\c1cccc3[nH]ccc13)C2=O
7. C=Cn1cc(/C=C(\C)C(=O)c2cc(OC)c(OC)c(OC)c2)c2ccc(OC)cc21

[A]
41
58
8
164
331
26
89

Given the compound COc1ccc2c(/C=C/C(=O)c3cc(OC)c(OC)c(OC)c3)cn(C)c2c1 and test system A549, the measured IC50 is 23
